B1: Gamma-crystallin C, residues 4 to 79; numbered along this chain, P07315 (parent)
chain: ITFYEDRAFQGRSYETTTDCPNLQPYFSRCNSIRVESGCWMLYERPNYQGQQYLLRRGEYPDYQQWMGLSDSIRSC

- Variants of: B1
- assayInfo: abundance fitness (aPCA) (normalised: wild type 0, dead -1); higher = more abundant; growth selection in yeast, the domain comes from the species named
- assayConditions: Homo sapiens
Mark 0.0 for abundance fitness values under -0.07, and 1.0 for everything at or above.

Some solved entries appear below for comparison.
[[record]]
sequencetext = "ITFYEDRAFQGRSYETTTDCPNLQPYFSRCNSIRVESGCWMLYERPNYQGQQYLLRRGEYPFYQQWMGLSDSIRSC [D62F]"
answerlabel = 1.0

[[record]]
sequencetext = "ITFYEDRAFQGRSYETTTDCPNLQPYFSRCNSIRVESGCWMLYERPNYQGQQYLLRRGEYPDYQQWMGLSDCIRSC [S72C]"
answerlabel = 0.0

[[record]]
sequencetext = "ITFYEDRAFQGRSYETTTDCPNLQPYFSRCNSIRVESGCWWLYERPNYQGQQYLLRRGEYPDYQQWMGLSDSIRSC [M41W]"
answerlabel = 1.0

[[record]]
sequencetext = "ITFYEDRAFQGRSYETTTDCPNLQPYFSRCNSIRVESGCWMLYERPNYQGQQYLLRGGEYPDYQQWMGLSDSIRSC [R57G]"
answerlabel = 1.0

[[record]]
sequencetext = "ITFYEDRAFQGRSYETTTDCPNLQPYFSRCNSIRVESGCWMAYERPNYQGQQYLLRRGEYPDYQQWMGLSDSIRSC [L42A]"
answerlabel = 0.0


# bool: abundance fitness of ITFYEDRAFQGRSYETTTDCPNLQPYFSRCNSIRVESGCWMLYERPNYQGQQYLWRRGEYPDYQQWMGLSDSIRSC [L55W] >= -0.07
0.0

Consider next the variant ITFYTDRAFQGRSYETTTDCPNLQPYFSRCNSIRVESGCWMLYERPNYQGQQYLLRRGEYPDYQQWMGLSDSIRSC [E5T] in the same way.
0.0

Consider next the variant ITFYEDRAFQGRSYETTTDCPNLQPYFSRCNSIRVESGCWMLYIRPNYQGQQYLLRRGEYPDYQQWMGLSDSIRSC [E44I] in the same way.
1.0

Consider next the variant ITFYEDRAFYGRSYETTTDCPNLQPYFSRCNSIRVESGCWMLYERPNYQGQQYLLRRGEYPDYQQWMGLSDSIRSC [Q10Y] in the same way.
0.0

Consider next the variant ITFYEDRAFQGRSYDTTTDCPNLQPYFSRCNSIRVESGCWMLYERPNYQGQQYLLRRGEYPDYQQWMGLSDSIRSC [E15D] in the same way.
1.0

Consider next the variant ITFYEDCAFQGRSYETTTDCPNLQPYFSRCNSIRVESGCWMLYERPNYQGQQYLLRRGEYPDYQQWMGLSDSIRSC [R7C] in the same way.
1.0

Every entry's value here was drawn from the Human Domainome abundance scans (Beltran et al. 2025).
